Exercise: for every item that follows, state its recorded log10 Kd.
- target-system: T1, EsCas13d, nuclease-dead (Eubacterium siraeum, UniProt B0MS50, R295A;H300A;R849A;H854A)
- T1 sequence: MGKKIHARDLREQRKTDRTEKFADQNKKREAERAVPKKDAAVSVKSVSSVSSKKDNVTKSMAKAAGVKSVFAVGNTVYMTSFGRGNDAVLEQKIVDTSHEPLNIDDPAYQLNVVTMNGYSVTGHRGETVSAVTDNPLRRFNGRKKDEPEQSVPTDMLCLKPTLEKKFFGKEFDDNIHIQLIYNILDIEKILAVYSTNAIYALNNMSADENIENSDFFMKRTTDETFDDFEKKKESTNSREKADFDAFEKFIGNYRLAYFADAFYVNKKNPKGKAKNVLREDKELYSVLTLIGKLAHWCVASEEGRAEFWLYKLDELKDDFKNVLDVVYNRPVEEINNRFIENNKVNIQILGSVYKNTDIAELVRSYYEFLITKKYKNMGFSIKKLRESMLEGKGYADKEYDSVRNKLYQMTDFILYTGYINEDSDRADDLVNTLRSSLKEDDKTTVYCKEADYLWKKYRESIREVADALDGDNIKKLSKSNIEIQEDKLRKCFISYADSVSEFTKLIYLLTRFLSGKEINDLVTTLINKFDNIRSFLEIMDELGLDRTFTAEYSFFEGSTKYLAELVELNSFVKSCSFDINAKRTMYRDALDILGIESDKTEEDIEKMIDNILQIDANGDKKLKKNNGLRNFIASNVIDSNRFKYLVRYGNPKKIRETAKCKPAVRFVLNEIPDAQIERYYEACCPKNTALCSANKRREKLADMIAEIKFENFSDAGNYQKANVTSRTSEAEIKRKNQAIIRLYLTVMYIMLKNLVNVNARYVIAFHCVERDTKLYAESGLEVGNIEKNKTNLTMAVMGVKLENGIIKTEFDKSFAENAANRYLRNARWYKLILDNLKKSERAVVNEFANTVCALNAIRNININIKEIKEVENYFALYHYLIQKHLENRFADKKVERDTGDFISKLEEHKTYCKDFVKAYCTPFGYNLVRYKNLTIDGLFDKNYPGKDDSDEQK
- test-description: crRNA (strand 1, pre-loaded); Mg2+; 40 mM Tris-HCl pH 7.5, 150 mM NaCl, 6 mM MgCl2, 1 mM DTT, 0.1% Tween-20, 0.2 mg/ml BSA; 25 C; 10 min per concentration, then washed
- experimental-conditions: tags: His6-TwinStrep-SUMO cleaved; N-terminal SNAP kept (SNAP-Surface 488); label: 3' end held by stalled T7 RNA polymerase
Note: values are log10 of Kd expressed in nM.

{"columns": ["binder", "log10 Kd"],
 "data": [
  ["target 3 A12U (mixed) RNA 1: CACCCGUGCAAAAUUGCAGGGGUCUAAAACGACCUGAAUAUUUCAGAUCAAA RNA 2: GGGAAUGGAUCCACAUCUACGAAUUCGUUUUUGAUCUGAUAUAUUCAGGUCUGCAGAUCGGAAGAGCACACGU", 1.87],
  ["target 1 U3G,G5U (mixed) RNA 1: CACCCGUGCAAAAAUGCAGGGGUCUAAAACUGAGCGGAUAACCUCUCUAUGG RNA 2: GGGAAUGGAUCCACAUCUACGAAUUCGUACCAUAGAGAGGUUAUCCUCGCACCGAGAUCGGAAGAGCACACGU", 1.15],
  ["target 1 insU 3' of 14,insU 3' of 12 (mixed) RNA 1: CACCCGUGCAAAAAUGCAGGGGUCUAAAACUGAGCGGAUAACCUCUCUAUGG RNA 2: GGGAAUGGAUCCACAUCUACGAAUUCGUACCAUAGAGAUGGUUUAUCCGCUCACCGAGAUCGGAAGAGCACACGU", 1.42],
  ["target 1 insU 3' of 21,insA 3' of 15 (mixed) RNA 1: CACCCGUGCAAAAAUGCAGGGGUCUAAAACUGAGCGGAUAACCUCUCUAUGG RNA 2: GGGAAUGGAUCCACAUCUACGAAUUCGUACCUAUAGAGAAGGUUAUCCGCUCACCGAGAUCGGAAGAGCACACGU", 1.27],
  ["target 1 G17A (mixed) RNA 1: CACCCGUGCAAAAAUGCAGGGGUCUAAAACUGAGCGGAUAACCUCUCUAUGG RNA 2: GGGAAUGGAUCCACAUCUACGAAUUCGUACCAUAAAGAGGUUAUCCGCUCACCGAGAUCGGAAGAGCACACGU", 1.44]
]}

Please report log10 Kd for every entry that follows.
1. target 1 insU 3' of 15,insG 3' of 14 (mixed) RNA 1: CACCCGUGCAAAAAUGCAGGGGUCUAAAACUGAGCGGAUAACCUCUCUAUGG RNA 2: GGGAAUGGAUCCACAUCUACGAAUUCGUACCAUAGAGUAGGGUUAUCCGCUCACCGAGAUCGGAAGAGCACACGU
2. target 1 MT 5'PFS ACA 3'PFS AAC (mixed) RNA 1: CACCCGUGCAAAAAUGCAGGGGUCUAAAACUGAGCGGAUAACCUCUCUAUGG RNA 2: GGGAAUGGAUCCACAUCUACGAAUUCACACCAUAGAGAGGUUAUCCGCUCAAACAGAUCGGAAGAGCACACGU
3. target 1 MT 5'PFS GAA 3'PFS UAA (mixed) RNA 1: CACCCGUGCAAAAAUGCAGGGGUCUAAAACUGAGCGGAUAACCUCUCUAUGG RNA 2: GGGAAUGGAUCCACAUCUACGAAUUCGAACCAUAGAGAGGUUAUCCGCUCAUAAAGAUCGGAAGAGCACACGU

1.35
1.18
1.36

Entry target 2 MT 5'PFS CAA 3'PFS CUC (mixed) RNA 1: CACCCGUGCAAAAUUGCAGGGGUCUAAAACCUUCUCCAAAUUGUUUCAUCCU RNA 2: GGGAAUGGAUCCACAUCUACGAAUUCCAAAGGAUGAAACAAUUUGGAGAAGCUCAGAUCGGAAGAGCACACGU needs its log10 Kd filled in; supply it.
0.72
